target: α1C Human Adrenergic Receptor (Homo sapiens, UniProt P35348); construct: The entire coding region of α1C (1401 bp); expressed in transfected cells; assay: Radioligand binding, [3H]prazosin, cloned human α1C adrenergic receptor; details: cloned human receptor, LM(tk-) cell membranes, mean, read-out: PKi alpha-1 1c (converted)
Sequence (P35348 whole entry): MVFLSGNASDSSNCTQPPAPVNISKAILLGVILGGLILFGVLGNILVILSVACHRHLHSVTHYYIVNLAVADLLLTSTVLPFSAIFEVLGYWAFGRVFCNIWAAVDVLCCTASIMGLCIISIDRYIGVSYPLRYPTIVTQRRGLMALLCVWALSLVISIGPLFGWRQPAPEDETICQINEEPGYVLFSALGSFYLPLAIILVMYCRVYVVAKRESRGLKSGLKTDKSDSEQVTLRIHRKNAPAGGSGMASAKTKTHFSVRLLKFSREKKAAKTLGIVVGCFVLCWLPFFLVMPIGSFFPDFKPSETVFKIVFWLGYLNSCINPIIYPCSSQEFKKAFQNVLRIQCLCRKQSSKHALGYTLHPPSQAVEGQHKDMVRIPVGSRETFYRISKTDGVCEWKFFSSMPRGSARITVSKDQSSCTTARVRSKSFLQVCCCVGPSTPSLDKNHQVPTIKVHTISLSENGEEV
Please use 1 (yes) for Ki under 0.01 µM and 0 (no) for everything else, ties included.

CCOC(=O)C1(c2ccccc2)CCN(CCCNC(=O)C2=C(COCCN)NC(CC)=C(C(=O)O)C2c2ccc([N+](=O)[O-])cc2)CC1 (centres unmarked) = 0 (no)

Could you please tell me whether Ki recorded for CNC(=O)C1=C(C)NC(C)=C(C(=O)NCCCN2CCC(C(=O)OC)(c3ccccc3)CC2)C1c1ccc2c(c1)OCCO2 (centres unmarked) is less than 0.01 µM?
0 (no)

Could you please tell me whether Ki recorded for CCOC(=O)C1(c2ccccc2)CCN(CCCNC(=O)C2=C(COCCN=[N+]=[N-])NC(CC)=C(C(=O)OC)C2c2ccc([N+](=O)[O-])cc2)CC1 (centres unmarked) is less than 0.01 µM?
1 (yes)

Could you please tell me whether Ki recorded for CCOC(=O)C1(c2ccccc2)CCN(CCCNC(=O)C2=C(COCCN=[N+]=[N-])NC(CC)=C(C(=O)NC)C2c2ccc([N+](=O)[O-])cc2)CC1 (centres unmarked) is less than 0.01 µM?
1 (yes)

Could you please tell me whether Ki recorded for CCC1=C(C(=O)OCCC#N)C(c2ccc([N+](=O)[O-])cc2)C(C(=O)NCCCN2CCC(C(=O)OC)(c3ccccc3)CC2)=C(COCCN=[N+]=[N-])N1 (centres unmarked) is less than 0.01 µM?
0 (no)

====

target: α1A Human Adrenergic Receptor (Homo sapiens); construct: The entire coding region of α1A (1719 bp); expressed in transfected cells; experiment: Radioligand binding, [3H]prazosin, cloned human α1A adrenergic receptor; conditions: pKi alpha-1 1a
Sequence (P25100 whole entry): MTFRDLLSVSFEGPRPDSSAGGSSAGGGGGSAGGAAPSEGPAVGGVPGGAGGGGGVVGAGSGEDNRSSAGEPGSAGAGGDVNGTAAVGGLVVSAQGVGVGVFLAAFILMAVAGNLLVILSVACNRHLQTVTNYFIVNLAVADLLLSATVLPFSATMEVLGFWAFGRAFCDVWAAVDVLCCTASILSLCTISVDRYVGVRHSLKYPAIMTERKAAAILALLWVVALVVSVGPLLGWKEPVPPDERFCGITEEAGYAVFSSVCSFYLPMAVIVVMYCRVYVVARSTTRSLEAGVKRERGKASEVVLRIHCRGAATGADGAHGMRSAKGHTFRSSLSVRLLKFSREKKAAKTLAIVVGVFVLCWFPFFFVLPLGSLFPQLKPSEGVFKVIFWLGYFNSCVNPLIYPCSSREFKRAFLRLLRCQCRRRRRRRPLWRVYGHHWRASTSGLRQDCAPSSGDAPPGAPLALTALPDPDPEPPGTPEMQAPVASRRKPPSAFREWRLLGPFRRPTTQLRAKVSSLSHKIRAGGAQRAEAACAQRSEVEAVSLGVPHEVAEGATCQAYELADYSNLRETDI
Where a name gives a salt, the structure may show the parent alone.
Please use yes for Ki under 0.7 µM and no for everything else, ties included.

COC(=O)C1=C(C)NC(C)=C(C(=O)NCCCN2CCC(c3ccccc3)(c3ccccc3)CC2)C1c1ccc(Cl)c(Cl)c1 (centres unmarked) [Example 24] = yes
COC(=O)C1=C(C)NC(C)=C(C(=O)NCCCN2CCC(c3ccccc3)(c3ccccc3)CC2)C1c1ccc(C(C)C)cc1 (centres unmarked) [Example 18] = no
COC(=O)C1=C(C)NC(C)=C(C(=O)NCCCN2CCC(c3ccccc3)(c3ccccc3)CC2)C1c1ccc(C)cc1 (centres unmarked) [Example 19] = yes

Could you please tell me whether Ki recorded for COC(=O)C1=C(C)NC(C)=C(C(=O)NCCN2CCC(c3ccccc3)(c3ccccc3)CC2)C1c1ccc([N+](=O)[O-])cc1 (centres unmarked) [Example 52, hydrochloride hemihydrate] is less than 0.7 µM?
no

====

Reported pKi is given for each of the following compounds.
biological target: α2B receptor (Homo sapiens); construct: host or cells: LM(tk-) cells, line L-NGC-α2B; test: Competition binding, [3H]rauwolscine, human α2B receptor; conditions: PKi alpha-2 2b, [3H]rauwolscine, human α2B receptor, LM(tk-) cells
Sequence (P18089 whole entry): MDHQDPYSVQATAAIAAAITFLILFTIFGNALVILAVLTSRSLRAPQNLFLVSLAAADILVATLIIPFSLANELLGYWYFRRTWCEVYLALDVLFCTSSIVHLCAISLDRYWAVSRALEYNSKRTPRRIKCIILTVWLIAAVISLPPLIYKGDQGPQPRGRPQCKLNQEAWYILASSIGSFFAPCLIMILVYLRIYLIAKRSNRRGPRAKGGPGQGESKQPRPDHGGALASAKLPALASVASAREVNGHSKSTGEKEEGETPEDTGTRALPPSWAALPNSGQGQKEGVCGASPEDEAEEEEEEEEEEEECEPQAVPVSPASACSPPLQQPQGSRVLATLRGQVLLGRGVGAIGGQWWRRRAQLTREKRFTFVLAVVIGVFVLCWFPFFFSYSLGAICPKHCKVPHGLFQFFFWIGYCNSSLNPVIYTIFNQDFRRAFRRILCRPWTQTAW
The read-out pKi is expressed as -log10 of concentration in moles per litre.

# annotated cases, reported pKi shown
CCC1=C(C(=O)NCCOC)C(c2ccc([N+](=O)[O-])cc2)C(C(=O)NCCCN2CCC(c3ccccc3)(c3ccccc3)CC2)=C(COC)N1 (stereo not shown) = 6.32
CC(=O)C1=C(C)NC(COCCN)=C(C(=O)NCCCN2CCC(c3ccccc3)(c3ccccc3)CC2)C1c1ccc(F)cc1 (stereo not shown) = 6.03
CCC1=C(C(=O)OCCO)C(c2ccc([N+](=O)[O-])cc2)C(C(=O)NCCCN2CCC(c3ccccc3)(c3ccccc3)CC2)=C(COC)N1 (stereo not shown) = 6.51

Fill in: α2B receptor (Homo sapiens) pKi for CC(=O)C1=C(C)NC(COCCN)=C(C(=O)NCCCN2CCC(c3ccccc3)(c3ccccc3)CC2)C1c1ccc2c(c1)OCO2 (stereo not shown) = 6.12
